# TARGET_ENTITY: RSV prefusion F (preF), DS-Cav1 (Respiratory Syncytial Virus, UniProt P03420 26-513)
# PROCEDURE_SUMMARY: BLI, IgG on anti-human IgG sensor, 100 nM antigen, 1:1 fit
I'd appreciate it if you marked entries rule met when Kd is lower than 4 nM and rule not met when it is not.

- BINDER: "ADI-41482 (antibody, V domains shown) VH: QVQLVQSGAEVKKPGSSVKVSCKASGGTFGSYTINWVRQAPGQGLEWMGGIIPIFGATNYAQNFQGRVSITADKSTATAYMDLISLRSEDTAVYYCARLGRSSPLNSCTTTSCYFWGRGMDVWGQGTTVTVSS VL: QSVLIQPASVSGSPGQSITISCTGTISDVGIYNYVSWYQQHPGKAPKLIISDVSDRPSGVSNRFSGSKSGITASLTITGLQAEDEADYYCSSYSSSSTLYVFGTGTKLTVL"
  GROUP_LABEL: "rule met"
- BINDER: "ADI-41547 (antibody, V domains shown, also called Ab 819; Antibody Number 819) VH: QVQLVQSGAEVKKPGSSVKVSCKASGGSFSSNTINWVRQAPGQGLEWMGGIIPVFETPNYAQKFQGRVSFTADESTRTAYMELSSLRSEDTAVYFCARQGMSYYDTNGNYYVGWFDTWGQGTLVTVSS VL: EIVLTQSPGTLSLSPGERATLSCRASQSLNNNYLAWYQRKPGQAPRLLIYGAGAFSRATGIPDRFSGSGSGTDFTLTISRLEPEDFALYYCQQYGSSPLTFGQGTRLEIK"
  GROUP_LABEL: "rule met"
- BINDER: "ADI-41498 (antibody, V domains shown, also called Ab 778; Antibody Number 778) VH: EVQLLESGGGLVKPGGSLRLSCAASGFIFSDYAMNWVRQTPGKGLEWVSSISDSSAYKYYTGSVSGRFTISRDNAKNSLYLQMNDLRPEDTAVFYCARGQWRCSGASCYSPFDSWGQGTLVTVSS VL: SYELTQPPSVSVAPGQTARIPCGGNNIESKNVHWYQQKPGQAPVLVVYDDSDRPSGIPERFSGSNSGSTATLTISRVEAGDEADYYCHVWHRSGDLREVFGSGTKVTVL"
  GROUP_LABEL: "rule met"
- BINDER: "ADI-41540 (antibody, V domains shown) VH: QVQLQQWGAGLLKPSETLSLTCGVYGGSFTGYQWSWIRQSPGKGLEWIGDIDHGGNTNYRPSLKSRIITSVNMSKKEFSLKLASVTAADTAVYYCARGVGFLEFSGGPTGRRRNWFDSWGQGTLVTVSS VL: DIQLTQSPGTLSLSPGEGATLSCRASQSVGGSYLAWYQQRPGQAPRLLIYGASNRAADSPDRFSGSGSATDFTLTISRLEPEDFAVYYCQQYGSSPWTFGQGTKVEIK"
  GROUP_LABEL: "rule met"
- BINDER: "ADI-41496 (antibody, V domains shown) VH: QVQLVQSGAEVKKPGASVKVSCKASGYTFTSDDINWVRQATGQGLEWMGWMNPNSGDTGYAQKFQGRVTMTRDTSISTAYMELSSLRSEDTAVYYCARVRIQCSGGRCSYWFFDLWGRGTLVTVSS VL: QSALTQPASVSGSPGQSITISCIGTSSDVGNYNLVSWYQHHPGKAPKVMIYEVNERPSGVSNRFSGSKSGNTASLTISGLQAEDEADYYCCSYAGRSTWVFGGGTKLTVL"
  GROUP_LABEL: "rule met"
- BINDER: "ADI-41508 (antibody, V domains shown, also called Ab 786; Antibody Number 786) VH: QVQLVQSGAEVRKPGASVKVSCKASGYGFRSYDLTWVRQAPGKGLEWVGWISAYSGGTNYAQTLQGRVTMTTDTSTSTAYMELRSLGPDDTAVYYCARAGLYGSGSPDGFDSWGQGTLVTVSS VL: SYELTQPPSVSVSPGQTASITCSGDKLGDKYASWYQQRPGQSPVLVISQDTKRPSGIPERFSGSTSGNTAILTISGTQAMDEADYYCLAWDSSTAWVFGGGTKLTVL"
  GROUP_LABEL: "rule not met"
- BINDER: "ADI-41492 (antibody, V domains shown) VH: QVQLVQSGAEVRKPGSSVKVSCKASGGTFNSFVISWVRQAPGQGLEWMGRIIPILATVDYAQKFQGRVTITADKSTTTAYMELSGLTSEDTAVYYCARDPPRWDTTMADYYYQGMDVWGQGTTVTVSS VL: DIRVTQSPASLSAFVGDRVTISCRASQSIGSFLNWYQQKPGKAPKLLIYAASSLQSGVPSRFSGSGSGTDFTLAISSLQPEDFATYYCQQSYRSTPTFGGGTKVEIK"
  GROUP_LABEL: "rule not met"
- BINDER: "ADI-41460 (antibody, V domains shown) VH: QVTLKESGPALVKPTQTLTLTCTFSGFSLNTRGMCVSWVRQPPGKALEWLARIDWDDDKNYSTSLRTRLTISKDTSRNQVVLAMANMDPVDTATYYCARCARYDRSGYYVWYLDSWGQGTLVTVSS VL: DIQMTQSPSSLSASVGDRVTITCRASQTIASYLNWYQQKPGKAPKLLIYVASTLQSGVPSRFSGSGSGTDFTLTISSLQPEDFATYYCQQSYSLTQWTFGQGTKVEIK"
  GROUP_LABEL: "rule met"
- BINDER: "ADI-43645 (antibody, V domains shown, also called Ab 826; Antibody Number 826) VH: QVQLVQSGAEVKKPGSSVKVSCKASGGTFSSYAISWVRQAPGQGLEWMGGIIPIFGTANYAQKFQGRVTITADESTSTAYMELSSLRSEDTAVYYCARGWRGGGMTGSYYYYGMDVWGQGTTVTVSS VL: DIQVTQTPSTLSASVGDRVTITCRASQSISSWLAWYQQKPGKAPKLLIYKASSLESGVPSRFSGSGSGTEFTLTISSLQPDDFATYYCQQHRGTFGQGTKVDIK"
  GROUP_LABEL: "rule not met"
- BINDER: "ADI-41489 (antibody, V domains shown, also called Ab 770; Antibody Number 770) VH: EVQLVESGGGVVQPGRSLRLSCAASGFNFHNYAFHWVRQAPGKGLDWVAVTSYDGSSAFYADSVKGRFTISRDNSKKILYLQMTSLRAEDTALYYCARGSSSWSGDYFDYWGQGILVTVSS VL: DIVMTQSPVTLSVSPGERATLSCRASQSVGSNLAWYQQKHGQTPRLLIYDASTRATSIPARFSGSGSGTEFTLTISSLQSEDFAVYYCQQYNKWPSYTFGQGTKVEIK"
  GROUP_LABEL: "rule not met"
